# Tested system: UniProt:P52333
# Sequence (P52333 whole entry): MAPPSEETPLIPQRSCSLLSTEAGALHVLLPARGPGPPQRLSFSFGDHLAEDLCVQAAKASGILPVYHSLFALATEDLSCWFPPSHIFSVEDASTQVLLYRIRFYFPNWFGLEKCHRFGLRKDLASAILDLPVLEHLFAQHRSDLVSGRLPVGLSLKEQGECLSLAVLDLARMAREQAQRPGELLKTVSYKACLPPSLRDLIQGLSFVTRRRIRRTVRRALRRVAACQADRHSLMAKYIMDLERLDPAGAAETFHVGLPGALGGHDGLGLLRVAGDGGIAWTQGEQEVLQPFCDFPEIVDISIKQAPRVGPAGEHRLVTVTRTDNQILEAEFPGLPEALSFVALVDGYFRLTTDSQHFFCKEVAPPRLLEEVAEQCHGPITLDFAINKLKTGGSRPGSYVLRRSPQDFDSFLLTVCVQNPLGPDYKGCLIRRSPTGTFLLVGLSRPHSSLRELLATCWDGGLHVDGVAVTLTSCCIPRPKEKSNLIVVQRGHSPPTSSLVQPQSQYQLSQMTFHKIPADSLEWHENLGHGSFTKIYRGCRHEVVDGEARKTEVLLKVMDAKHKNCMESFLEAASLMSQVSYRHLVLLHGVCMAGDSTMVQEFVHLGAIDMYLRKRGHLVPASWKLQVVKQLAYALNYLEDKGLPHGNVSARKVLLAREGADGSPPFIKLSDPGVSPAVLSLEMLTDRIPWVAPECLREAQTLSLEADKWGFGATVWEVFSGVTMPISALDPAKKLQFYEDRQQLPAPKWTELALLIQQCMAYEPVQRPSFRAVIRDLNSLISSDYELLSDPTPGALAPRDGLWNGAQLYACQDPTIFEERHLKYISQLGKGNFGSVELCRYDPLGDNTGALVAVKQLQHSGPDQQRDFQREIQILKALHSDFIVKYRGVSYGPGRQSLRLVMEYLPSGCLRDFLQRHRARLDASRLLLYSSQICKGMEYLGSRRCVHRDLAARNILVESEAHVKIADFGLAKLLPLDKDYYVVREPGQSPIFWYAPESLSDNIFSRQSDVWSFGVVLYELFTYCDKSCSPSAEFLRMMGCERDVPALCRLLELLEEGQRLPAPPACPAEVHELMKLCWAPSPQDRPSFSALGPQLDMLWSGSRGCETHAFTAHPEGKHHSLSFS
Readout label: IC50 (nM)

| Chemical smiles | Tested system | IC50, nM |
| --- | --- | --- |
| Cc1cnc(Nc2ccc(N3CCOCC3)cc2)nc1-c1cnn(CCC#N)c1 | UniProt:P52333 | 18 |
| Cc1cnc(Nc2ccc(N3CCN(C)CC3)cc2)nc1-c1cnn(CCC#N)c1 | UniProt:P52333 | 16 |
| Cc1cnc(Nc2cnn(C)c2)nc1-c1cnn([C@H](CC#N)C2CCCC2)c1 | UniProt:P52333 | 3.4 |

[I] Cc1cc(Nc2ncc(C)c(N3CC(CC#N)(N4CCN(C)CC4)C3)n2)sn1
[II] Cc1cnc(NC2CCOCC2)nc1-c1cnn(CCC#N)c1
Between item I and item II , which reported IC50 is smaller? // return label of chosen record
I
(I: 70 nM, II: 50000 nM)
